- experimental_system: ligand binding domain of human ROR gamma (Homo sapiens)
- Construct: NM_001001523; expressed in transfected cells; host or cells: HEK293T
- Sequence (P51449 247-497 isoform P51449-2): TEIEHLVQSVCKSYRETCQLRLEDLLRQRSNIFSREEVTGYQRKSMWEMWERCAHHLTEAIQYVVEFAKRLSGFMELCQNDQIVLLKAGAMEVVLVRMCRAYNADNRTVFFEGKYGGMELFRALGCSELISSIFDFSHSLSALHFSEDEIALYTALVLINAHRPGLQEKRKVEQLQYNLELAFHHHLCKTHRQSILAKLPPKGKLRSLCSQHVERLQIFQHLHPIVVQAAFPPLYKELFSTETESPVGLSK
- assay_procedure: ROR gamma reporter gene assay (GAL4-RORγ LBD luciferase, Dual-Glo)
- Type: cell-based
- measurement_context: HEK293T cells transfected with pM-ROR gamma, 8 concentrations 3.5 nM to 10.5 μM, 24 h incubation; read-out: result (pIC50, inhibition of RORγ transcriptional activity) (converted)
reported_metric: IC50 (pM)
// units = pM; emit number, no label

q: Requested read-out IC50, target or system ligand binding domain of human ROR gamma (Homo sapiens), entry CC1(C)CC[C@@H](N(CC(=O)c2c(Cl)cncc2Cl)C(=O)c2cnn([C@H]3CC[C@H](C(=O)O)CC3)c2C(F)(F)F)C1
a: 50100

q: Reported IC50 for ligand binding domain of human ROR gamma (Homo sapiens), given CC(C)(C)CN(CC(=O)c1c(Cl)cncc1Cl)C(=O)c1cnn(C23CCC(C(=O)O)(CC2)CC3)c1C(F)(F)F ?
a: 15800

q: For ligand binding domain of human ROR gamma (Homo sapiens), provide IC50 of O=C(CN(Cc1cc(F)cc(F)c1)C(=O)c1cnn([C@H]2CC[C@H](C(=O)O)CC2)c1Cl)c1c(Cl)cncc1Cl please.
a: 3.09e+06

q: Lab request: please report IC50 under test system ligand binding domain of human ROR gamma (Homo sapiens) for O=C(CN(C(=O)c1cnn([C@H]2CC[C@H](C(=O)O)CC2)c1C(F)(F)F)[C@H]1CC[C@@H](C(F)(F)F)CC1)c1c(Cl)cncc1Cl
a: 20000

* * *

- experimental_system: ligand binding domain of human ROR gamma (Homo sapiens, UniProt P51449)
- Construct: NM_001001523; expressed in transfected cells; host or cells: HEK293T
- Sequence (P51449 247-497 isoform P51449-2): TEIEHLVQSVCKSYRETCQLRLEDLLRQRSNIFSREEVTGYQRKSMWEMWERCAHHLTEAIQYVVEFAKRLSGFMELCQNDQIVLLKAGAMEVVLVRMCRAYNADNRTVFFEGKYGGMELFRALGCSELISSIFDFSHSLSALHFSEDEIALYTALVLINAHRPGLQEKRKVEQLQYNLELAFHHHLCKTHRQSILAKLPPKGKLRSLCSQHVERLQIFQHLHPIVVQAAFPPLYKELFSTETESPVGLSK
- assay_procedure: ROR gamma reporter gene assay (GAL4-RORγ LBD luciferase, Dual-Glo)
- Format: cell-based
- measurement_context: HEK293T cells transfected with pM-ROR gamma, 8 concentrations 3.5 nM to 10.5 μM, 24 h incubation; read-out: result (pIC50, inhibition of RORγ transcriptional activity) (converted)
reported_metric: IC50 (pM)
Only the number, expressed in pM, is required.

q: Look at this molecule and give its reported IC50. O=C(CN(Cc1nc(Cl)cs1)C(=O)c1cnn([C@H]2CC[C@H](C(=O)O)CC2)c1C(F)(F)F)c1c(Cl)cncc1Cl
a: 1.17e+06

q: # input molecule: CC1(C)CCC(N(CC(=O)c2c(Cl)cccc2Cl)C(=O)c2cnn([C@H]3CC[C@](C)(C(=O)O)CC3)c2Cl)CC1 ; wanted: its IC50
a: 29500

q: Reported IC50 for CC(C1CCCC1)N(CC(=O)c1c(Cl)cncc1Cl)C(=O)c1cnn([C@H]2CC[C@H](C(=O)O)CC2)c1C(F)(F)F (some centres unmarked) : what is it?
a: 224000

q: GET /values?readout=IC50&item= COc1cncc(Cl)c1C(=O)CN(Cc1ccc(F)cc1)C(=O)c1cnn([C@H]2CC[C@H](C(=O)O)CC2)c1C(F)(F)F
a: 275000

q: Any idea what its IC50 is? The molecule is C#Cc1cccc(Cl)c1C(=O)CN(Cc1cc(F)cc(F)c1)C(=O)c1cnn([C@H]2CC[C@H](C(=O)O)CC2)c1C(F)(F)F
a: 1.32e+06

q: Please give the measured IC50 for this molecule: COc1cccc(Cl)c1[C@H](O)CN(C(=O)c1cnn([C@H]2CC[C@](C)(C(=O)O)CC2)c1C(F)(F)F)[C@H]1C[C@@H]2[C@H](C1)C2(C)C
a: 45700

q: // returns reported IC50 for input C[C@]1(C(=O)O)CC[C@H](n2ncc(C(=O)N(CC(=O)c3c(Cl)cc(Cl)cc3Cl)C3CCC4(CC3)COC4)c2C(F)(F)F)CC1
a: 93300

q: Entry O=C(CN(Cc1cc(F)cc(F)c1)C(=O)c1cnn([C@H]2CC[C@H](C(=O)O)CC2)c1C(F)(F)F)C1CCCC1 has what IC50?
a: 4.57e+06

q: # lookup: IC50 of COc1cncc(Cl)c1C(=O)CN(CC(C)(C)C)C(=O)c1cnn([C@H]2CC[C@](C)(C(=O)O)CC2)c1C(F)(F)F
a: 55000

q: // returns reported IC50 for input CC12CCC(CN(CC(=O)c3c(Cl)cncc3Cl)C(=O)c3cnn([C@H]4CC[C@](C)(C(=O)O)CC4)c3Cl)(CC1)O2
a: 141000

q: Could you share which IC50 value was measured for CC(C)(C)[S+]([O-])CCN(CC(=O)c1c(Cl)cc(F)cc1Cl)C(=O)c1cnn([C@H]2CC[C@](C)(C(=O)O)CC2)c1C(F)(F)F (some centres unmarked) ?
a: 7.24e+06

q: # query: IC50 of entry Cc1cc(Cl)cc(C)c1C(=O)CN(C(=O)c1cnn([C@H]2CC[C@](C)(C(=O)O)CC2)c1C(F)(F)F)C1CCC(C)(C)CC1
a: 245000

q: Dear colleague, I am looking for the recorded IC50 of the following molecule: CC1(CN(CC(=O)c2c(Cl)cncc2Cl)C(=O)c2cnn([C@H]3CC[C@H](C(=O)O)CC3)c2C(F)(F)F)CCCCC1
a: 74100

q: Look at this molecule and give its reported IC50. COC(C)(C)CN(CC(=O)c1c(Cl)cncc1Cl)C(=O)c1cnn([C@H]2CC[C@H](C(=O)O)CC2)c1C(F)(F)F
a: 263000

q: Need IC50 of C[C@]1(C(=O)O)CC[C@H](n2ncc(C(=O)N(CC(=O)c3c(Cl)cccc3Cl)CC3(F)CCCC3)c2C(F)(F)F)CC1 , thanks.
a: 4270

q: Given CC(C)(C)[C@H]1C[C@H](CN(CC(=O)c2c(Cl)cncc2Cl)C(=O)c2cnn([C@H]3CC[C@H](C(=O)O)CC3)c2C(F)(F)F)C1 , state its recorded IC50.
a: 324000

q: # IC50 lookup, item CC1(C)CC(CN(CC(=O)c2c(Cl)cc(Cl)cc2Cl)C(=O)c2cnn(C34CCC(C(=O)O)(CC3)CC4)c2C(F)(F)F)C1
a: 6030

q: State the recorded IC50 for this entry: C[C@]1(C(=O)O)CC[C@H](n2ncc(C(=O)N(CC(=O)c3c(Cl)cncc3Cl)CC3(C(F)(F)F)CC3)c2Cl)CC1
a: 72400

q: I would be grateful if you could share the reported IC50 for CC1(C#N)CCC(N(CC(=O)c2c(Cl)cncc2Cl)C(=O)c2cnn([C@H]3CC[C@H](C(=O)O)CC3)c2C(F)(F)F)C1 (some centres unmarked) .
a: 1.02e+06

q: Return reported IC50; argument: CC(C)(C)OCCN(CC(=O)c1c(Cl)cncc1Cl)C(=O)c1cnn([C@H]2CC[C@](C)(C(=O)O)CC2)c1C(F)(F)F
a: 20000

* * *

- experimental_system: human RORγ-LBD (Homo sapiens)
- Construct: made in house; host or cells: E. coli (BL-21)
- assay_procedure: ROR gamma coactivator peptide recruitment Alphascreen assay (RORγ-LBD binding to GRIP1 coactivator peptide)
- Format: biochemical
- measurement_context: 5 nM human RORγ-LBD, 30 nM 7-β-hydroxycholesterol, 50 nM biotinylated GRIP1 coactivator peptide, overnight incubation at room temperature; read-out: result (pIC50, RORγ coactivator peptide recruitment Alphascreen assay) (converted)
Provide the reported IC50 of each item.
Enter your answer as a number in nM; do not include the unit.

q: Dear colleague, I am looking for the recorded IC50 of the following molecule: CC1(C)CC(CN(CC(=O)c2c(F)cccc2F)C(=O)c2cnn([C@H]3CC[C@@H](C(=O)O)CC3)c2C(F)(F)F)C1
a: 2400

q: Find the recorded IC50 belonging to C[C@H]1C[C@@H](n2ncc(C(=O)N(CC(=O)c3c(Cl)cncc3Cl)CC(C)(C)C)c2C(F)(F)F)CC[C@@H]1C(=O)O (single isomer, unassigned) and report it.
a: 6.03

q: Param item = Cc1cc(Cl)c(C(=O)CN(Cc2ccc(Cl)cc2)C(=O)c2cnn([C@H]3CC[C@H](C(=O)O)CC3)c2C(F)(F)F)c(Cl)n1 ; retrieve measured IC50.
a: 3.31

q: What does the record list as IC50 for Cc1cc(Cl)c(C(=O)CN(CC2(F)CC2)C(=O)c2cnn([C@H]3CC[C@](C)(C(=O)O)CC3)c2C(F)(F)F)c(Cl)n1 ?
a: 70.8

q: # lookup: IC50 of CC(C)(C)CN(C[C@H](O)c1c(Cl)cccc1Cl)C(=O)c1cnn([C@H]2CC[C@H](C(=O)O)CC2)c1C(F)(F)F [Example 524]
a: 77.6

q: I'd like to know its IC50. The molecule in question is CC(C)(CN(CC(=O)c1c(Cl)cccc1Cl)C(=O)c1cnn([C@H]2CC[C@](C)(C(=O)O)CC2)c1C(F)(F)F)C(F)(F)F
a: 2.24

q: IC50 lookup needed for Cc1cc(Cl)c(CCN(CC2CCCCC2)C(=O)c2cnn([C@H]3CC[C@](C)(C(=O)O)CC3)c2C(F)(F)F)c(Cl)c1 , thanks.
a: 1.91

q: Report IC50 for C[C@]1(C(=O)O)CC[C@H](n2ncc(C(=O)N(CC(=O)c3c(Cl)cccc3Cl)C3CC4(CCC4)C3)c2C(F)(F)F)CC1 please.
a: 3.98

q: // lookup IC50 for CC1(CN(CC(=O)c2c(Cl)cncc2Cl)C(=O)c2cnn([C@H]3CC[C@H](C(=O)O)C(C)(C)C3)c2C(F)(F)F)CCC1 [Example 825]
a: 1.38

q: Quick check: IC50 of COc1cc(Cl)c(C(=O)CN(CC2CC(C)(C)C2)C(=O)c2cnn([C@H]3CC[C@H](C(=O)O)CC3)c2C(F)(F)F)c(Cl)c1 ?
a: 5.01

q: Query (molecule): C[C@]1(CC(=O)O)CC[C@@H](n2ncc(C(=O)N(CC(=O)c3c(Cl)cncc3Cl)Cc3cc(F)cc(F)c3)c2C(F)(F)F)CC1 ; field requested: IC50
a: 34.7

q: Request the reported IC50 associated with Cc1cc(Cl)c(C(=O)CN(CC2CC(C)(C)C2)C(=O)c2cnn([C@H]3CC[C@H](C(=O)O)CC3)c2C(F)(F)F)c(Cl)c1
a: 2.51

q: Would you mind telling me what IC50 value was observed for CC(C)(C)[C@H]1C[C@@H](N(CC(=O)c2c(Cl)cncc2Cl)C(=O)c2cnn([C@H]3CC[C@](C)(C(=O)O)CC3)c2C(F)(F)F)C1 ?
a: 39.8

q: Given the molecule Cc1cc(Cl)c(C(=O)CN(CC2(F)CCCCC2)C(=O)c2cnn([C@H]3CC[C@](C)(C(=O)O)CC3)c2C(F)(F)F)c(Cl)c1 , what is its reported IC50?
a: 1.38

q: Which IC50 is reported for this molecule? C[C@@H]1C[C@@H](n2ncc(C(=O)N(CC(=O)c3c(Cl)cncc3Cl)CC3(C(F)(F)F)CC3)c2C(F)(F)F)CC[C@@H]1C(=O)O
a: 2.69

q: Fill in: IC50 of C[C@@H]1C[C@@H](n2ncc(C(=O)N(CC(=O)c3c(Cl)cncc3Cl)C[C@H]3CCCO3)c2C(F)(F)F)CC[C@@H]1C(=O)O is ___
a: 100

q: # input molecule: CC(C)(CN(CC(=O)c1c(Cl)cncc1Cl)C(=O)c1cnn([C@H]2CC[C@H](CC(=O)O)CC2)c1C(F)(F)F)C(F)(F)F ; wanted: its IC50
a: 1.82

q: Query (molecule): CC(C)[C@H]1C[C@H](Cc2c(Cl)cncc2Cl)N(C(=O)c2cnn([C@H]3CC[C@](C)(C(=O)O)CC3)c2C(F)(F)F)C1 ; field requested: IC50
a: 3.98

q: Form field: reported IC50 of CC1(C)CC[C@H]1N(CC(=O)c1c(Cl)cccc1Cl)C(=O)c1cnn([C@H]2CC[C@@H](C(=O)O)CC2)c1C(F)(F)F
a: 132

q: Returns the measured IC50 for the input molecule. Input: Cc1cc(Cl)c(C(=O)CN(C(=O)c2cnn([C@H]3CC[C@](C)(C(=O)O)CC3)c2C(F)(F)F)[C@H]2CCC23CCC3)c(Cl)c1
a: 0.832

q: Recorded IC50 for CC(C)(C)CN(CC(=O)c1c(Cl)cncc1Cl)C(=O)c1cnn([C@H]2CC[C@H](C(=O)O)C(C)(C)C2)c1C(F)(F)F (single isomer, unassigned) , please?
a: 3.98

q: Fill in the blank: the reported IC50 of CC1(CN(CC(=O)c2c(Cl)cncc2Cl)C(=O)c2cnn([C@H]3CC[C@](C)(C(=O)O)CC3)c2C(F)(F)F)CCCCC1 is ____.
a: 3.31

q: Would you mind telling me what IC50 value was observed for C[C@@H]1C[C@@](C)(C(=O)O)CC[C@@H]1n1ncc(C(=O)N(CC(=O)c2c(Cl)cncc2Cl)CC(C)(C)C)c1C(F)(F)F ?
a: 646

q: Tell me the measured IC50 of CC1(C)CC(CN(CC(=O)c2c(Cl)cccc2Cl)C(=O)c2cnn([C@H]3CC[C@@](C)(C(=O)O)CC3)c2C(F)(F)F)C1 , please.
a: 2.04
